The measured values listed here are drawn from patent EP0315491A2.

System: L1210 leukemia cells
Experiment: In vitro IC50, suspension culture, cell count by Coulter Counter
Type: cell-based
Conditions: Mus musculus, L1210, 48 h, compound present for 48 hours (four cell doubling times), read-out: IC50 L1210 Mouse Lymphoma
Metric: pIC50
Lab note — pIC50 values are minus log10 of concentrations in M.

Briefly, pIC50 measured for COc1ccc(-c2cc(-c3ccc(N)cc3)[s+]c(-c3ccc(N)cc3)c2)cc1 [Compound T-4] : 8.00

The measured pIC50 associated with Nc1ccc(-c2cc(-c3ccccc3)cc(-c3ccc(N)cc3)[s+]2)cc1 [Compound T-3] reads 7.48

So for CN(C)c1ccc(-c2cc(-c3ccc(N)cc3)[s+]c(-c3ccc(N)cc3)c2)cc1.[Cl-] [Compound T-5] , the logged pIC50 turned out to be 6.66

So for CN(C)c1ccc(-c2cc(-c3cccc(N)c3)[s+]c(-c3cccc(N)c3)c2)cc1 [Compound T-1] , the logged pIC50 turned out to be 7.42

Item: Nc1ccc(-c2cc(-c3ccc(N)cc3)[s+]c(-c3ccc(N)cc3)c2)cc1 [Compound T-2] | pIC50: 6.57
